- measurement_protocol: Single ascending oral dose study in healthy volunteers: plasma pharmacokinetics
- Assay type: in vivo, human
- stated_conditions: human, plasma, oral, 350 mg + 525 mg; read-out: AUC0-∞, Mean
measure_name: AUC(0-inf) (ng·h/mL)
Reply with just the number (in ng·h/mL).

Notebook: `Cn1cc(S(=O)(=O)[C@@](C)(F)C2CCN(C(=O)Nc3ccon3)CC2)c(C(F)F)n1` , AUC(0-inf) read as 74400

====

- measurement_protocol: HFrEF study Part 1 (SAD Cohorts 1 and 2): plasma pharmacokinetics
- Type: in vivo, human
- stated_conditions: human, plasma, oral, 350 mg, SAD Cohort 1, 350 mg (n = 8); read-out: AUC0-24
measure_name: AUC(0-t) (ng·h/mL)
Reply with just the number (in ng·h/mL).

Notebook: Cn1cc(S(=O)(=O)[C@@](C)(F)C2CCN(C(=O)Nc3ccon3)CC2)c(C(F)F)n1 [Compound I] , AUC(0-t) read as 50500

Where do these numbers come from? They come from patent US20220265629A1.
